Hey, just so you know, these numbers are from patent US9567347B2.

- Test system: primary human neutrophils
- assay-comment: luminol chemiluminescence assay of fMLP-induced ROS production
- Format: cell-based
- condition-parameters: Neutrophil
- Experimental: HL-60 cells were propagated in RPMI 1640 medium containing 10% heat inactivated fetal bovine serum, 2 mM L-glutamine, 100 U/mL penicillin/streptomycin at 37° C. in air containing 5% CO2. […] Chemiluminescence was measured using GloMax®-96 Microplate Luminometer (Promega) (Tarpey et al., (2004) Am J Physiol Regul Integr Comp Physiol 286: R431-R444, hereby incorporated by reference in its entirety). […]
pIC50: −log10 of the molar value.
property: pIC50

Query: If you can, please state the reported pIC50 value of COc1ccc2c(c1)C1C=C(c3ccccc3)NN1C(c1cccc([N+](=O)[O-])c1)O2 (stereo not shown) .
Reply: ~5.10
